assay: Cytotoxicity against human K562 cells; type: cell-based
Values of GI50 strictly less than 100 µM map to Fulfilled, and values of at least 100 µM map to Not fulfilled.

Asked: Check if GI50 falls below 100 µM for Cc1c(O)c(=O)ccn1CCCCNc1ccnc2cc(Cl)ccc12 .
Given back: Fulfilled

Asked: Now consider Cc1cc(NC(=O)CCCn2ccc(=O)c(O)c2C)c2ccccc2n1 .
Given back: Not fulfilled

Asked: Now consider Cc1c(O)c(=O)ccn1CCNc1ccnc2cc(Cl)ccc12 .
Given back: Not fulfilled

Asked: Now consider CC(=O)N(O)CCCCCNC(=O)CCC(=O)N(O)CCCCCNC(=O)CCC(=O)N(O)CCCCCN .
Given back: Fulfilled

Asked: Now consider Cc1c(O)c(=O)ccn1CCCCNc1ccnc2ccccc12 .
Given back: Fulfilled

Asked: Now consider Cc1cc(NCCCCn2ccc(=O)c(O)c2C)c2ccccc2n1 .
Given back: Not fulfilled

====

Please provide measured logP for the entries that follow.
assay: Lipophilicity, log P of the compound; type: physicochemical; conditions: octanol/water

Asked: Requested read-out: logP. Entry: Cc1cc(NC(=O)CCCn2ccc(=O)c(O)c2C)c2ccccc2n1
Given back: 1.28

Asked: Now consider Cc1c(O)c(=O)ccn1CCCCNc1ccnc2cc(Cl)ccc12 .
Given back: 1.4

Asked: Now consider Cc1c(O)c(=O)ccn1CCCNc1ccnc2cc(Cl)ccc12 .
Given back: 1.32

Asked: Now consider Cc1c(O)c(=O)ccn1CCNc1ccnc2cc(Cl)ccc12 .
Given back: 1.08

Asked: Now consider Cc1c(O)c(=O)ccn1CCCCNc1ccnc2ccccc12 .
Given back: 1.25

Asked: Now consider Cc1cc(NCCCCn2ccc(=O)c(O)c2C)c2ccccc2n1 .
Given back: -0.48

====

assay: Selectivity index, ratio of GI50 for human HL60 cells to GI50 for Leishmania infantum MHOM/BR/1972/LD promastigotes; format: toxicity, cell-based, HL-60; details: read-out: RatioGI50
Please provide measured selectivity ratio for the entries that follow.
Please give the numeric answer without any surrounding text.

Asked: Requested read-out: selectivity ratio. Entry: CCCCCCCCCCn1ccc(=O)c(O)c1C
Given back: 9

Asked: Now consider Cc1c(O)c(=O)ccn1CCCCNc1ccnc2cc(Cl)ccc12 .
Given back: 2

Asked: Now consider CCCCCCCCn1ccc(=O)c(O)c1C .
Given back: 4

====

assay: Selectivity index, ratio of GI50 for human HL60 cells to GI50 for Trypanosoma brucei TC211; assay type: toxicity, cell-based, HL-60; settings: read-out: RatioGI50
Please provide measured selectivity ratio for the entries that follow.
Please give the numeric answer without any surrounding text.

Asked: Requested read-out: selectivity ratio. Entry: CCCCCCCCn1ccc(=O)c(O)c1C
Given back: 3

Asked: Now consider Cc1c(O)c(=O)ccn1CCCCNc1ccnc2cc(Cl)ccc12 .
Given back: 13

Asked: Now consider CCCCCCCCCCn1ccc(=O)c(O)c1C .
Given back: 5

====

experiment: Selectivity index, ratio of GI50 for human K562 cells to GI50 for Plasmodium falciparum ITG2G1; assay type: toxicity, cell-based; conditions: read-out: RatioGI50
quantity-measured: selectivity ratio
Please give the numeric answer without any surrounding text.

Asked: Requested read-out: selectivity ratio. Entry: Cc1c(O)c(=O)ccn1CCCCNc1ccnc2cc(Cl)ccc12
Given back: 16

Asked: Now consider Cc1c(O)c(=O)ccn1CCNc1ccnc2cc(Cl)ccc12 .
Given back: 26

Asked: Now consider Cc1cc(NC(=O)CCCn2ccc(=O)c(O)c2C)c2ccccc2n1 .
Given back: 21

Asked: Now consider Cc1cc(NCCCCn2ccc(=O)c(O)c2C)c2ccccc2n1 .
Given back: 23

Asked: Now consider Cc1c(O)c(=O)ccn1CCCCNc1ccnc2ccccc12 .
Given back: 17

====

test: Selectivity index, ratio of GI50 for human HL60 cells to GI50 for Trypanosoma cruzi trypomastigotes; assay type: toxicity, cell-based, HL-60; conditions: read-out: RatioGI50
Please provide measured selectivity ratio for the entries that follow.
Please give the numeric answer without any surrounding text.

Asked: Requested read-out: selectivity ratio. Entry: Cc1c(O)c(=O)ccn1CCCCNc1ccnc2cc(Cl)ccc12
Given back: 8

Asked: Now consider CCCCCCCCn1ccc(=O)c(O)c1C .
Given back: 4

Asked: Now consider CCCCCCCCCCn1ccc(=O)c(O)c1C .
Given back: 8
